System: collagen-induced ex vivo platelet aggregation
assay explanation: Ex vivo dog study: duration of >50% inhibition of collagen-induced ex vivo platelet aggregation
Format: in vivo
details: oral, 3 mpk
result type: Duration of >50% inhibition of collagen-induced ex vivo platelet aggregation, oral dosing (min)
Please reply with the bare figure in min and do not write the unit itself.

CCN(CC)C(=O)COC(=O)C[C@H](NC(=O)[C@@H]1CCCN(C(=O)CCC2CCNCC2)C1)c1cncc(Br)c1: 90

Requested field: Duration of >50% inhibition of collagen-induced ex vivo platelet aggregation, oral dosing. Item: CCN(CC)C(=O)COC(=O)C[C@H](NC(=O)[C@@H]1CCCN(C(=O)CCC2CCNCC2)C1)c1ccc2c(c1)OCO2
150

Requested field: Duration of >50% inhibition of collagen-induced ex vivo platelet aggregation, oral dosing. Item: O=C(N[C@@H](CNC(=O)[C@@H]1CCCN(C(=O)CCC2CCNCC2)C1)C(=O)O)OCc1ccccc1 [carboxylic acid congener, reference compound]
180
